# PROTOCOL DETAILS: Aqueous solubility of saturated solution at 21 °C (phosphorus determination by molybdenum blue spectrophotometry)
# CONDITION NOTES: saturated aqueous solution, 21 °C, agitation time 30 min
Outcome: rule met for pH of saturated solution of at least 2; rule not met for anything lower.

Q: Quick check: does `NCCCCCCCCCCCC(O)(P(=O)(O)O)P(=O)(O)O` have pH of saturated solution greater than or equal to 2?
Result: rule met

Q: Quick check: does `NCCCCCCCCCCC(O)(P(=O)(O)O)P(=O)(O)O` have pH of saturated solution greater than or equal to 2?
Result: rule met

Q: Quick check: does `NCCCCCCCCC(O)(P(=O)(O)O)P(=O)(O)O` have pH of saturated solution greater than or equal to 2?
Result: rule met

Q: Quick check: does NCCCC(O)(P(=O)(O)O)P(=O)(O)O [Compound 2, reference compound] have pH of saturated solution greater than or equal to 2?
Result: rule not met

Q: Quick check: does NCCCCCC(O)(P(=O)(O)O)P(=O)(O)O [Compound 4, reference compound] have pH of saturated solution greater than or equal to 2?
Result: rule met

====

# PROTOCOL DETAILS: Thermal analysis (TG/DTA and TGA 7)
# Type: physicochemical
# CONDITION NOTES: TG/DTA, higher crucible; air, 5 °C/min
PROPERTY NAME: Td (°C)
Report the value in °C with no unit label.

Examples from the recorded data:
STRUCTURE SMILES: NCCCCC(O)(P(=O)(O)O)P(=O)(O)O
Td (°C): 217

STRUCTURE SMILES: NCCCCCCCCCC(O)(P(=O)(O)O)P(=O)(O)O
Td (°C): 185

STRUCTURE SMILES: NCCCCCCCC(O)(P(=O)(O)O)P(=O)(O)O
Td (°C): 193

STRUCTURE SMILES: NCCCCCCCCCCCC(O)(P(=O)(O)O)P(=O)(O)O
Td (°C): 185

Please examine the following record next.
Q: Need Td, item `NCCCCCCCCC(O)(P(=O)(O)O)P(=O)(O)O`
Result: 190

====

# PROTOCOL DETAILS: Protonation constants by (traditional) potentiometric titration (TPT), SUPERQUAD
# CONDITION NOTES: log K, pKa4 (HL3− + H+ ⇋ H2L2−), TPT, 0.1 M NaNO3, 25 °C
PROPERTY NAME: pKa
Give a plain numeric answer without units written out.

Q: Need pKa, item NCCCCCC(O)(P(=O)(O)O)P(=O)(O)O [Compound 4, reference compound]
Result: 10.9

====

# PROTOCOL DETAILS: Effect of temperature on aqueous solubility
# CONDITION NOTES: 7.6 °C, water, thermodynamic from solid
PROPERTY NAME: solubility at 24 h (µg/mL)
Report the value in µg/mL with no unit label.

Q: Need solubility at 24 h, item NCCCCCC(O)(P(=O)(O)O)P(=O)(O)O [Compound 4, reference compound]
Result: 4600

====

# PROTOCOL DETAILS: Effect of temperature on aqueous solubility
# CONDITION NOTES: 50 °C, water, thermodynamic from solid
PROPERTY NAME: solubility at 24 h (µg/mL)
Report the value in µg/mL with no unit label.

Q: Need solubility at 24 h, item NCCCCCC(O)(P(=O)(O)O)P(=O)(O)O [Compound 4, reference compound]
Result: 9550

====

This listing pairs compounds with measured solubility at 30 min.
# PROTOCOL DETAILS: Effect of pH on aqueous solubility
# CONDITION NOTES: water, pH adjusted with NaOH or HCl, 21 °C, pH 10, aqueous buffer, thermodynamic from solid
Report the value in µg/mL with no unit label.

Examples from the recorded data:
STRUCTURE SMILES: NCCCCCCCCCCC(O)(P(=O)(O)O)P(=O)(O)O
PROPERTY NAME: solubility at 30 min
DISPLAY UNIT: µg/mL
VAL: 400

STRUCTURE SMILES: NCCCCCCCCC(O)(P(=O)(O)O)P(=O)(O)O
PROPERTY NAME: solubility at 30 min
DISPLAY UNIT: µg/mL
VAL: 1200

Please examine the following record next.
Q: Need solubility at 30 min, item `NCCCCCCCCCCCC(O)(P(=O)(O)O)P(=O)(O)O`
Result: 400

====

# PROTOCOL DETAILS: Thermal analysis (TG/DTA and TGA 7)
# Assay type: physicochemical
# CONDITION NOTES: TGA 7, shallow crucible
Outcome: yes for Onset temperature of first cleavage of at least 200 °C; no for anything lower.

// below: answered molecules
MOLECULE: NCCCCCCCCCCCCCCCC(O)(P(=O)(O)O)P(=O)(O)O [Compound 10]
CLASS LABEL: no
--
MOLECULE: NCCCCCC(O)(P(=O)(O)O)P(=O)(O)O [Compound 4, reference compound]
CLASS LABEL: yes
--
MOLECULE: NCCCCCCCCC(O)(P(=O)(O)O)P(=O)(O)O [Compound 6]
CLASS LABEL: no
--
MOLECULE: NCCCCCCCCCC(O)(P(=O)(O)O)P(=O)(O)O [Compound 7]
CLASS LABEL: no

Okay, now this molecule:
Q: Quick check: does NCCC(O)(P(=O)(O)O)P(=O)(O)O [Compound 1] have Onset temperature of first cleavage greater than or equal to 200 °C?
Result: no

====

# PROTOCOL DETAILS: Effect of pH on aqueous solubility
# CONDITION NOTES: 21 °C, pH 9, aqueous buffer, thermodynamic from solid
PROPERTY NAME: solubility at 30 min (µg/mL)
Report the value in µg/mL with no unit label.

Q: Need solubility at 30 min, item NCCCCCC(O)(P(=O)(O)O)P(=O)(O)O [Compound 4, reference compound]
Result: 3080

====

# PROTOCOL DETAILS: Protonation constants by (traditional) potentiometric titration (TPT), SUPERQUAD
# CONDITION NOTES: aqueous 0.1 M NaNO3, log K, pKa5 (L4− + H+ ⇋ HL3−), TPT, 0.1 M NaNO3, 25 °C
This listing pairs compounds with measured pKa.
Give a plain numeric answer without units written out.

Examples from the recorded data:
STRUCTURE SMILES: NCCC(O)(P(=O)(O)O)P(=O)(O)O
VAL: 12.9
--
STRUCTURE SMILES: NCCCCCCCC(O)(P(=O)(O)O)P(=O)(O)O
VAL: 11.7

Q: Need pKa, item `NCCCCC(O)(P(=O)(O)O)P(=O)(O)O`
Result: 12.1

====

# PROTOCOL DETAILS: Thermal analysis (TG/DTA and TGA 7)
# Type: physicochemical
# CONDITION NOTES: TG/DTA, higher crucible; lower limit taken at 0.5 wt-%
PROPERTY NAME: Temp. range of 1st cleavage

Q: Need Temp. range of 1st cleavage, item `NCCC(O)(P(=O)(O)O)P(=O)(O)O`
Result: 134–199 °C

Q: Need Temp. range of 1st cleavage, item NCCCCCC(O)(P(=O)(O)O)P(=O)(O)O [Compound 4, reference compound]
Result: 196–260 °C

Q: Need Temp. range of 1st cleavage, item `NCCCCCCCCC(O)(P(=O)(O)O)P(=O)(O)O`
Result: 33–175 °C

Q: Need Temp. range of 1st cleavage, item `NCCCCCCCC(O)(P(=O)(O)O)P(=O)(O)O`
Result: 182–212 °C

Q: Need Temp. range of 1st cleavage, item `NCCCCCCCCCCC(O)(P(=O)(O)O)P(=O)(O)O`
Result: 50–146 °C

Q: Need Temp. range of 1st cleavage, item `NCCCCCCCCCC(O)(P(=O)(O)O)P(=O)(O)O`
Result: 175–211 °C

Q: Need Temp. range of 1st cleavage, item NCCCC(O)(P(=O)(O)O)P(=O)(O)O [Compound 2, reference compound]
Result: 168–252 °C

Q: Need Temp. range of 1st cleavage, item `NCCCCC(O)(P(=O)(O)O)P(=O)(O)O`
Result: 198–252 °C

Q: Need Temp. range of 1st cleavage, item `NCCCCCCCCCCCC(O)(P(=O)(O)O)P(=O)(O)O`
Result: 163–232 °C

Q: Need Temp. range of 1st cleavage, item `NCCCCCCCCCCCCCCCC(O)(P(=O)(O)O)P(=O)(O)O`
Result: 150–248 °C

====

# PROTOCOL DETAILS: Aqueous solubility of saturated solution at 21 °C (phosphorus determination by molybdenum blue spectrophotometry)
# CONDITION NOTES: Milli-Q water, unbuffered, 21 °C, water, thermodynamic from solid
This listing pairs compounds with measured solubility at 30 min.
Don't forget the unit after the number, please.

STRUCTURE SMILES: NCCC(O)(P(=O)(O)O)P(=O)(O)O
VAL: 10900 µg/mL

Q: Need solubility at 30 min, item `NCCCCCCCCCCCC(O)(P(=O)(O)O)P(=O)(O)O`
Result: 30 µg/mL

Q: Need solubility at 30 min, item `NCCCCCCCC(O)(P(=O)(O)O)P(=O)(O)O`
Result: 2100 µg/mL
